Reference source: PubChem BioAssay

Field: composite z-score. Provide a value for each of the molecules that follow.
# procedureSummary: probe aEGFR binding to arrayed compounds – biochemical, biotinylated probe, 635/667 nm fluorescence, primary screen (AID 1097);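 further: probe is a biotinylated anti-EGFR antibody binding compounds printed on slides; score combines fluorescence near 667 nm and signal to noise of each spot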
# experimentalSetup: small-molecule microarray, higher = more signal
Give bare numbers.

# molecule, composite z-score
measured = [
    ("[N-]=[N+]=Nc1ccccc1C[C@]1(C(=O)N2CCCCC2)N=C(c2ccc(OCCCO)cc2)O[C@H]1c1ccccc1N=[N+]=[N-]", 0.277),
]

# per-item lookup of composite z-score; items listed below
1. CO[C@H]1O[C@H](CO)[C@@H](OC(=O)Nc2ccc3c(c2)OCO3)[C@H](OC(=O)Nc2ccc3c(c2)OCO3)[C@H]1OC(=O)Nc1ccc2c(c1)OCO2
2. O=C1C2C=CC(C(O)c3cccc4ccccc34)N(n3cnnc3)C2C(=O)N1Cc1ccccc1 (stereo not given)
3. [N-]=[N+]=NCc1ccccc1C[C@]1(C(=O)NCC(O)CO)COC(c2ccc(OCCCO)cc2)=N1 (stereo not given in full)
4. COCCOC(=O)N1C(=O)[C@@]2(c3cc(C#Cc4ccc(OC)cc4)ccc31)[C@H](c1ccc(OCCO)cc1)N1[C@H](c3ccccc3)[C@H](c3ccccc3)OC(=O)[C@H]1[C@@H]2C(=O)N1CCc2cc(OC)c(OC)cc2C1

Completion:
1. -0.0455
2. 0.804
3. 0.204
4. -0.02

# per-item lookup of composite z-score; items listed below
1. CCCNC(=O)[C@@]1(c2ccc([N+](=O)[O-])cc2)CC(=O)N(CC23CC4CC(CC(C4)C2)C3)[C@@H]1c1ccc(CO)cc1I
2. Cc1ccc(S[C@]2(C(=O)NCC(C)C)CC(=O)N(Cc3ccccc3)[C@@H]2c2ccc(CO)cc2)cc1
3. COC(=O)C(CC#Cc1ccc2c(c1)[C@]1(C(=O)N2)[C@H](C(=O)N2CCCCCCC2)[C@H]2C(=O)O[C@H](c3ccccc3)[C@H](c3ccccc3)N2[C@@H]1c1ccccc1OCCO)C(=O)OC
4. COCCOC(=O)N1C(=O)[C@@]2(c3ccccc31)[C@H](c1ccc(O)cc1)N1[C@H](c3ccccc3)[C@H](c3ccccc3)OC(=O)[C@H]1[C@@H]2C(N)=O

Completion:
1. 0.141
2. -0.236
3. 1.46
4. -0.16

# per-item lookup of composite z-score; items listed below
1. C=CCC(OC(C)=O)[C@@H]1[C@@H](N(Cc2ccc(-c3ccccc3)cc2)C(=O)c2ccc(C)cc2)c2cc(OCCCO)ccc2N1C(=O)Cc1ccc(OC)cc1 (stereo not given in full)
2. Cc1ccc(S[C@]2(C(=O)NCC(F)(F)F)CC(=O)N(C3Cc4ccccc4C3)[C@@H]2c2ccc(CO)cc2I)cc1
3. CC(C)(C)OC(=O)CC[C@@]1(C(=O)NCC(O)CO)N=C(c2ccc(OCCCO)cc2)O[C@@H]1c1ccccc1 (stereo not given in full)
4. COc1cc2c(cc1O)C(c1ccc(CN3CCCC3)cc1)N(Cc1sc3ccccc3c1Cl)CC2 (stereo not given)
5. C=C(CCCC)C(=O)CC[C@H](OC(C)=O)c1ccc(CO)o1
6. C/C=C/[C@H](CCn1cc([C@H](O)c2ccccc2)nn1)[Si](C)(C)c1ccc(OC)cc1

Completion:
[-0.109, -0.255, -0.071, 0.0475, -0.182, -0.375]
